Target: hGcgR (Homo sapiens)
Sequence (P47871 26-477): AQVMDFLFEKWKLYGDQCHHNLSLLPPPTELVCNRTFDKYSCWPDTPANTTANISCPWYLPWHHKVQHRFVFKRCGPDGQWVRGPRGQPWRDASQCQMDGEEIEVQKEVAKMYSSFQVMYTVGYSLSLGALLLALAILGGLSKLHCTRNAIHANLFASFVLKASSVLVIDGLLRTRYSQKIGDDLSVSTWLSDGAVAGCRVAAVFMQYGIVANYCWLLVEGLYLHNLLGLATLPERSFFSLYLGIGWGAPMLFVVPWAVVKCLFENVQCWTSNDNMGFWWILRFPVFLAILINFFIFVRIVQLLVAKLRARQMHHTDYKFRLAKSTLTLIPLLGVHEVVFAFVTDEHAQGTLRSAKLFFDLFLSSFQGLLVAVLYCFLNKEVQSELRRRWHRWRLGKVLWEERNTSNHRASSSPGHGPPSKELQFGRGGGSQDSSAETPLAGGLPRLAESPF
Experiment: Functional cAMP activation in the presence of 0.1% casein (no HSA);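 note: intracellular cAMP rise after 30 min at 37 °C, read by HTRF against a cAMP standard curve, scaled from buffer only (0%) to maximal control ligand response (100%)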
Type: cell-based
Details: read-out: Relative cAMP EC50, hGcgR
Starred links: 1 amine or outer side, 2 acyl side, 3 side chain; linkers in the order of their positions; H or OH if unused. Non-standard residues stand in square brackets, D forms with d. Groups on a side chain read outwards from the residue. No end group written: not given here. *: point of attachment. C18 diacid = O=C(O)CCCCCCCCCCCCCCCCC(=O)*; αMePhe(2-F) = C[C@](N)(Cc1ccccc1F)C(=O)O; γGlu = O=C(O)[C@H](CCC(=O)[*:2])N[*:1]; αMe4Pal = C[C@](N)(Cc1ccncc1)C(=O)O; αMeY = C[C@](N)(Cc1ccc(O)cc1)C(=O)O; 4Pal = N[C@@H](Cc1ccncc1)C(=O)O; αMeL = CC(C)C[C@](C)(N)C(=O)O; αMeS = C[C@](N)(CO)C(=O)O; Orn = NCCC[C@H](N)C(=O)O; AEEA = NCCOCCOCC(=O)O; Aib = CC(C)(N)C(=O)O
Quantity Name: EC50 (nM)
Respond with the bare value in nM.

Recorded result, H-Y[Aib]QGT[αMePhe(2-F)]TSD[4Pal][αMeS]I[αMeL]LD[Orn]K([γGlu-γGlu-C18 diacid])AQ[Aib][Orn]FI[dE]YLIEGGPSSGEPPPSGTEE-NH2 [Example 535] , EC50: 3.16

Briefly, EC50 measured for H-Y[Aib]QGT[αMePhe(2-F)]TSD[4Pal]SILLDKK([γGlu-γGlu-C18 diacid])AQ[Aib]AFIE[αMeY]LEEGGPSSGAPPPSGEGE-NH2 [Example 667] : 2.34

Short answer for Y[Aib]QGT[αMePhe(2-F)]TSD[4Pal][αMeS]ILLD[Orn]K([γGlu-γGlu-C18 diacid])AQ[Aib][Orn]FI[dE][αMeY]LQEGGPSSGEPPPEGAE-NH2 [Example 546] : EC50 was 3.67

Short answer for H-Y[Aib]QGT[αMePhe(2-F)]TSD[4Pal][αMeS]I[αMeL]LD[Orn]K([γGlu-γGlu-C18 diacid])AQ[αMe4Pal]EFI[dE][αMeY]LIEGGPSSGEPPPSGGGE-NH2 [Example 744] : EC50 was 1.04

substance H-Y[Aib]QGT[αMePhe(2-F)]TSD[4Pal][αMeS]I[αMeL]LD[Orn]K([AEEA-γGlu-C18 diacid])AQ[αMe4Pal]EFI[dE][αMeY]LIEGGPSSGAPPPSGGGE-NH2 [Example 741] , EC50 observed: 2.01
